system: PPARg:RXRa 90nM:30nM, anti-RXR (NR concentration 90 nM, RXRa partner concentration 30 nM); assay: PBM binding z-score (relative to random genomic background probes); higher = stronger binding; sequences stand for … in GC…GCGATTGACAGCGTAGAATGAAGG
Provide the recorded PBM binding z-score for the entries that follow.
# respond with the number and nothing more

Q: Notebook entry, PPARg:RXRa 90nM:30nM, anti-RXR (NR concentration 90 nM, RXRa partner concentration 30 nM) assay: PBM binding z-score of CCTTAAGGGTCAAGGTTATAGCACGGGTGGTACG = ?
A: 4.78

Q: Notebook entry, PPARg:RXRa 90nM:30nM, anti-RXR (NR concentration 90 nM, RXRa partner concentration 30 nM) assay: PBM binding z-score of CGTCCAAGGTCAAGGGTCAGTGAAGAGATGACGG = ?
A: 7.94

Q: Notebook entry, PPARg:RXRa 90nM:30nM, anti-RXR (NR concentration 90 nM, RXRa partner concentration 30 nM) assay: PBM binding z-score of ATCTCTAGTTAAAGATAGTTCAGTGAATGCAAAT = ?
A: 0.51

Q: Notebook entry, PPARg:RXRa 90nM:30nM, anti-RXR (NR concentration 90 nM, RXRa partner concentration 30 nM) assay: PBM binding z-score of CGAACTAGGTCATTGACAGGAGAGTGAATAGTAA = ?
A: 5.77

###

tested on: PPARg:RXRa DBDmut IVT, anti-RXR (DBD mutation: RXRa K156A/R161A, NR concentration 270 nM, RXRa partner concentration 90 nM); test: PBM binding z-score (relative to random genomic background probes); higher = stronger binding; sequences stand for … in GC…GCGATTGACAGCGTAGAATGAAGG
Please use t whenever PBM binding z-score is not below 2, and f whenever it is.

Q: hey, is PBM binding z-score for this one >= 2? TGAATGAGGTTAAAGATCCGGGAACGTGGCGTCG
A: t

Q: hey, is PBM binding z-score for this one >= 2? CGTCCAAGGTCAAGGACAGTGAAAGAGACTCGAA
A: t

Q: hey, is PBM binding z-score for this one >= 2? CGTCTAAGGTCAGAGAGGTCAGTGAATGCCGAGT
A: t

Q: hey, is PBM binding z-score for this one >= 2? ATCGAAAGGTCGACGACGTGAGTATACACCGTTT
A: f

Q: hey, is PBM binding z-score for this one >= 2? TCATATCGGTAAAAGGTGAAAGTCGGTGTGGTAA
A: t

Q: hey, is PBM binding z-score for this one >= 2? CCTAGTTGGTCAAGAGGTCACACACCGGATATGA
A: t

Q: hey, is PBM binding z-score for this one >= 2? TCCGACAGGTGAAGGTAACTCAGGTACGCAGTCG
A: f

Q: hey, is PBM binding z-score for this one >= 2? GCTAGTTGGTCAGTAAAAGGTCCCACACCGGTCG
A: f

Q: hey, is PBM binding z-score for this one >= 2? TCAGACAGGTGAAGGTACCTCAGGTACGCAGTCG
A: f

Q: hey, is PBM binding z-score for this one >= 2? GCTGATAGGTCAGGTTGGTCAGCTAACGGGTACG
A: f

Q: hey, is PBM binding z-score for this one >= 2? CTACCAAGGTGAACAAGGTCGATGATTACTATTC
A: t

Q: hey, is PBM binding z-score for this one >= 2? CCTAGCAGGCCAATCTGGGTTACTCAAGGCTTGA
A: t

Q: hey, is PBM binding z-score for this one >= 2? AGATTGAGGTTAAGATCAGGGAAACAGAATACAT
A: t

Q: hey, is PBM binding z-score for this one >= 2? CCTACCAGGCCAGGGTCACTCAAGCATTTCGCTT
A: f

Q: hey, is PBM binding z-score for this one >= 2? AATACAGGGTCATCGTAGGCCAGAGGACGCACAG
A: t

Q: hey, is PBM binding z-score for this one >= 2? CAAACTAGGTCACGATAGGTCAAAGTCGAATGAC
A: t

Q: hey, is PBM binding z-score for this one >= 2? TCTGCTAGGTCAGTTGGTCAGTTAACGAGCTGCC
A: t

Q: hey, is PBM binding z-score for this one >= 2? AATACAGGGTCATCGTAGGGCAGAGTACGCACAG
A: t

Q: hey, is PBM binding z-score for this one >= 2? ACTATTAGTTGAGTTAGGGCAACCGATACGACGC
A: f

Q: hey, is PBM binding z-score for this one >= 2? AATGCAGGGTCACTAGGCCAGAGTAGGTACGAAT
A: t

Q: hey, is PBM binding z-score for this one >= 2? TGTCAAAGTTTAAAGGTAACGTAAGTATCCACAC
A: f

Q: hey, is PBM binding z-score for this one >= 2? CGAACTGGGTCAGAACAGGACAGTGAAGGATGAT
A: t

Q: hey, is PBM binding z-score for this one >= 2? GCTAGTTGGTCAGTAAAAGGTCACAGACCGGTCG
A: f

Q: hey, is PBM binding z-score for this one >= 2? GCTGCTAGGCCAACTGATGGTCAGCTAAAGCTCG
A: f

Q: hey, is PBM binding z-score for this one >= 2? CCGACTGGAGCAGAAAGGTTACCATACCATCCGG
A: f
